Data origin, for the record: paper PMC9482650

Target: T1, RADIL, Q96JH8
T1 sequence (Q96JH8 971-1071, limits assumed, looked up): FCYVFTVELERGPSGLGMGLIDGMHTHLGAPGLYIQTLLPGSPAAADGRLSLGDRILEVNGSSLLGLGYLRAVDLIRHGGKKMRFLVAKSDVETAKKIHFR
Assay: holdup assay
Design: key: below the threshold = too weak to quantify, mostly under pKd 3.1 to 4
Details: plain residues with an end cap or a label only (N-terminal biotin on a linker: ttds)
measurementKind: pKd

| binder | pKd |
| --- | --- |
| EVVHTPETSV [SLC16A3, O15427] | below the threshold |
| RHTTSTETAV [HPV30-E6, P36809] | below the threshold |
| DKDPHSETAL [TMIGD1, Q6UXZ0] | below the threshold |
| PRVKPQRSKV [PPP1R13L, Q8WUF5] | below the threshold |
| SGSRPSATVV [HPV73-E6, Q82005] | 4.27 |
| VDFPPKESSL [ACVR2A, P27037] | below the threshold |

Query :: Quick check: pKd of NDPAWDETNL [ARHGEF7, Q14155;Q14155-1] ?
Result :: below the threshold

Query :: Quick check: pKd of RLQRRRETQV [HPV18-E6, P06463] ?
Result :: 3.28

Query :: Quick check: pKd of SKPTRRETEV [HPV35-E6, P27228] ?
Result :: below the threshold

Query :: Quick check: pKd of RPLPRKVSQL [DOCK4, Q8N1I0] ?
Result :: below the threshold

Query :: Quick check: pKd of EMDRRPATVV [PLCB4, Q15147] ?
Result :: 3.99
